target: UFC1; experiment: reporter assay of Huesken 2005; conditions: siRNA; note: test concentration or dose not given here
Oligonucleotides are written 5' to 3', each unit as a sugar letter and its base; * is a phosphorothioate linkage, no mark a phosphodiester; rarer units and linkages stand in square brackets, end groups in braces. Plain capitals give the bases only. d = 2'-deoxy (DNA); r = 2'-OH (RNA)
Attribute: normalised inhibition (eCFP-eYFP dual reporter)
Give your result in % as a bare value.

Consider the following illustrative entries.
{"columns": ["Substance", "Endpoint unit", "Quantitative result"],
 "data": [
  ["sense rGrGrArUrGrGrArArArGrArCrArGrCrArArArGdTdT / antisense rCrUrUrUrGrCrUrGrUrCrUrUrUrCrCrArUrCrCdAdG", "%", 103],
  ["sense rCrCrGrGrUrArUrGrUrGrGrArGrArArCrArArCdTdT / antisense rGrUrUrGrUrUrCrUrCrCrArCrArUrArCrCrGrGdAdT", "%", 72.3]
]}

Please look at the following substance next.
[ask] Look up normalised inhibition (eCFP-eYFP dual reporter) with UFC1 for this substance: sense rCrArGrCrGrArCrUrGrArArGrGrArGrGrArArUdTdT / antisense rArUrUrCrCrUrCrCrUrUrCrArGrUrCrGrCrUrGdCdA
[reply] 100
